These data points were gathered from paper PMC2376925.

# PROTOCOL SUMMARY: Plasma pharmacokinetics of irinotecan, SN-38, SN-38G and APC (HPLC, noncompartmental)
# REPORTED CONDITIONS: human, plasma, intravenous, 100 mg
Counter-ions that a name gives are not always drawn.
MEASURE NAME: AUC(0-inf)
Kindly write the number and append the unit.

Item: CCc1c2c(nc3ccc(OC(=O)N4CCC(N5CCCCC5)CC4)cc13)-c1cc3c(c(=O)n1C2)COC(=O)[C@]3(O)CC [irinotecan, Irinotecan hydrochloride] | AUC(0-inf): 2960 ng·h/mL
